For each record, write down the corresponding relative viability.
System: PC-3 [JPC-3]
Assay: relative viability (nuclei count vs DMSO), 5 days (fraction); higher = more cells survive
Settings: first compound 0.006325 µM
No unit in the answer, only the number.

Q. Provide value of relative viability for this record tested with PC-3 [JPC-3]: CC(=O)O[C@@]12CO[C@@H]1C[C@H](O)[C@@]1(C)C(=O)[C@H](O)C3=C(C)[C@@H](OC(=O)[C@H](O)[C@@H](NC(=O)OC(C)(C)C)c4ccccc4)C[C@@](O)([C@@H](OC(=O)c4ccccc4)[C@H]21)C3(C)C [Docetaxel] + Nc1ncn([C@H]2C[C@H](O)[C@@H](CO)O2)c(=O)n1 [Decitabine] (partner 2 µM)
A. 0.5

Q. Provide value of relative viability for this record tested with PC-3 [JPC-3]: CC(=O)O[C@@]12CO[C@@H]1C[C@H](O)[C@@]1(C)C(=O)[C@H](O)C3=C(C)[C@@H](OC(=O)[C@H](O)[C@@H](NC(=O)OC(C)(C)C)c4ccccc4)C[C@@](O)([C@@H](OC(=O)c4ccccc4)[C@H]21)C3(C)C [Docetaxel] + N=C(N)NC(=N)NCCc1ccccc1 [Phenformin] (partner 250 µM)
A. 0.246

Q. Provide value of relative viability for this record tested with PC-3 [JPC-3]: CC(=O)O[C@@]12CO[C@@H]1C[C@H](O)[C@@]1(C)C(=O)[C@H](O)C3=C(C)[C@@H](OC(=O)[C@H](O)[C@@H](NC(=O)OC(C)(C)C)c4ccccc4)C[C@@](O)([C@@H](OC(=O)c4ccccc4)[C@H]21)C3(C)C [Docetaxel] + CC(=O)c1c(C)c2cnc(Nc3ccc(N4CCNCC4)cn3)nc2n(C2CCCC2)c1=O [Palbociclib] (partner 0.5 µM)
A. 0.469

Q. Provide value of relative viability for this record tested with PC-3 [JPC-3]: CC(=O)O[C@@]12CO[C@@H]1C[C@H](O)[C@@]1(C)C(=O)[C@H](O)C3=C(C)[C@@H](OC(=O)[C@H](O)[C@@H](NC(=O)OC(C)(C)C)c4ccccc4)C[C@@](O)([C@@H](OC(=O)c4ccccc4)[C@H]21)C3(C)C [Docetaxel] + CC(C)C[C@H](NC(=O)[C@H](Cc1ccccc1)NC(=O)c1cnccn1)B(O)O [Bortezomib] (partner 0.002 µM)
A. 0.263

###

System: 201T
Assay: relative viability (nuclei count vs DMSO), 5 days (fraction); higher = more cells survive
Details: first compound 0.253 µM
For each record, write down the corresponding relative viability.
No unit in the answer, only the number.

Q. For O=c1[nH]c2ccccc2n1C1CCN(CCCC(c2ccc(F)cc2)c2ccc(F)cc2)CC1 [Pimozide] + O=C(c1cc(Cc2n[nH]c(=O)c3ccccc23)ccc1F)N1CCN(C(=O)C2CC2)CC1 [Olaparib] (partner 8 µM) , what is its reported relative viability?
A. 0.836

Q. For O=c1[nH]c2ccccc2n1C1CCN(CCCC(c2ccc(F)cc2)c2ccc(F)cc2)CC1 [Pimozide] + Cc1cc(Nc2cc(N3CCN(C)CC3)nc(Sc3ccc(NC(=O)C4CC4)cc3)n2)n[nH]1 [Tozasertib] (partner 0.1 µM) , what is its reported relative viability?
A. 0.94

Q. For O=c1[nH]c2ccccc2n1C1CCN(CCCC(c2ccc(F)cc2)c2ccc(F)cc2)CC1 [Pimozide] + O=C(CCCCCCC(=O)Nc1ccccc1)NO [Vorinostat] (partner 1 µM) , what is its reported relative viability?
A. 0.964

Q. For O=c1[nH]c2ccccc2n1C1CCN(CCCC(c2ccc(F)cc2)c2ccc(F)cc2)CC1 [Pimozide] + Cc1nc(NC(=O)N2CCC[C@H]2C(N)=O)sc1-c1ccnc(C(C)(C)C(F)(F)F)c1 [Alpelisib] (partner 2 µM) , what is its reported relative viability?
A. 1.02

Q. For O=c1[nH]c2ccccc2n1C1CCN(CCCC(c2ccc(F)cc2)c2ccc(F)cc2)CC1 [Pimozide] + C[C@@H](Oc1cc(-c2cnn(C3CCNCC3)c2)cnc1N)c1c(Cl)ccc(F)c1Cl [Crizotinib] (partner 1 µM) , what is its reported relative viability?
A. 1

Q. For O=c1[nH]c2ccccc2n1C1CCN(CCCC(c2ccc(F)cc2)c2ccc(F)cc2)CC1 [Pimozide] + Nc1ncn([C@H]2C[C@H](O)[C@@H](CO)O2)c(=O)n1 [Decitabine] (partner 2 µM) , what is its reported relative viability?
A. 0.846

Q. For O=c1[nH]c2ccccc2n1C1CCN(CCCC(c2ccc(F)cc2)c2ccc(F)cc2)CC1 [Pimozide] + CCNC(=O)c1noc(-c2cc(C(C)C)c(O)cc2O)c1-c1ccc(CN2CCOCC2)cc1 [Luminespib] (partner 0.01 µM) , what is its reported relative viability?
A. 1.02

Q. For Cc1cnc(-c2cnc(NCCNc3ccc(C#N)cn3)nc2-c2ccc(Cl)cc2Cl)[nH]1 + COc1cc2c(Oc3ccc(NC(=O)C4(C(=O)Nc5ccc(F)cc5)CC4)cc3F)ccnc2cc1OCCCN1CCOCC1 [Foretinib] (partner 0.25 µM) , what is its reported relative viability?
A. 0.807
